- Test system: MDA-MB-231 cells
- run_description: Cell proliferation assay (CellTiter-Glo), MDA-MB-231
- Format: cell-based
- condition_summary: Homo sapiens, MDA-MB-231, 72 h, 72 h treatment, Celltiter-Glo luminescence
readout_name: IC50 (nM)

For orientation, consider the following solved cases.
compound | readout_value
C[C@@H]1CN(CC(=O)N2CC(C)(C)c3c2cc(Cc2ccc(F)cc2)c2nc(=O)[nH]n32)[C@@H](CN2CCOC[C@H]2C)CN1 [Compound 131] | 2740
[2H]C([2H])([2H])NC(=O)c1nc2c(Cc3ccc(F)cc3)cc3c(n2n1)C(C)(C)CN3C(=O)CN1C[C@@H](C)NC[C@@H]1CN1CCOC[C@H]1C [Compound 258] | 195
C[C@@H]1CN(CC(=O)N2CC(C)(C)c3c2cc(Cc2ccc(F)cc2)c2nc(C(F)(F)F)cn32)[C@@H](CN2CCN(CC#N)C[C@H]2C)CN1 [Compound 175] | 120
C[C@@H]1CN(CC(=O)N2CC(C)(C)c3c2cc(Cc2ccc(F)cc2)c2nc(N4CCS(=O)(=O)CC4)nn32)[C@@H](CN2CCOC[C@H]2C)CN1 [Compound 199] | 20
Cc1nc(C)n2c3c(cc(Cc4ccc(F)cc4)c12)N(C(=O)CN1C[C@@H](C)NC[C@@H]1CN1CCOC[C@H]1C)CC3(C)C [Compound 124] | 290

I. CCc1ncc2c(Cc3ccc(F)cc3)cc3c(n12)C(C)(C)CN3C(=O)CN1C[C@@H](C)NC[C@@H]1CN1CCOC[C@H]1C [Example 4]
II. C[C@@H]1CN(CC(=O)N2CC(C)(C)c3c2cc(Cc2ccc(F)cc2)c2nn(CC#N)c(=O)n32)[C@@H](CN2CCOC[C@H]2C)CN1 [Compound 185]
III. C[C@@H]1CN(CC(=O)N2CC(C)(C)c3c2cc(Cc2ccc(F)cc2)c2nc(N4CCOCC4=O)nn32)[C@@H](CN2CCOC[C@H]2C)CN1 [Compound 208]
IV. C[C@@H]1CN(CC(=O)N2CC(C)(C)c3c2cc(Cc2ccc(F)cc2)c2nc(N)nn32)[C@@H](CN2CCOC[C@H]2C)CN1 [Example 30]
V. CCc1nnc2c(Cc3ccc(F)cc3)cc3c(n12)C(C)(C)CN3C(=O)CN1C[C@@H](C)NC[C@@H]1CN1CCOC[C@H]1C [Compound 172]
**Query** Order each entry by recorded IC50, climbing from the minimum. Put the labels in the order asked and list them.
**Result** IV, II, I, III, V
(IV: 16 nM, II: 23 nM, I: 97 nM, III: 210 nM, V: 610 nM)

* * *

- System: MDA-MB-231 cells
- run_description: Cell proliferation assay (CellTiter-Glo), MDA-MB-231
- Type: cell-based
- condition_summary: Homo sapiens, MDA-MB-231, 72 h, 72 h treatment, Celltiter-Glo luminescence
pIC50: −log10 of the molar value.
readout_name: pIC50

For orientation, consider the following solved cases.
compound | target_desc | pIC50
COc1nc2c(Cc3ccc(F)cc3)cc3c(n2n1)C(C)(C)CN3C(=O)CN1C[C@@H](C)NC[C@@H]1CN1CCOC[C@H]1C | MDA-MB-231 cells | 7.70
C[C@@H]1CN(CC(=O)N2CC(C)(C)c3c2cc(Cc2ccc(F)cc2)c2ncnn32)[C@@H](CN2Cc3c(F)cccc3C2=O)CN1 | MDA-MB-231 cells | 7.92
Cc1nc(C#N)c2c(Cc3ccc(F)cc3)cc3c(n12)C(C)(C)CN3C(=O)CN1C[C@@H](C)NC[C@@H]1CN1CCOC[C@H]1C | MDA-MB-231 cells | 6.64
C[C@@H]1CN(CC(=O)N2CC(C)(C)c3c2cc([C@@H](O)c2ccc(F)cc2)c2ncnn32)[C@@H](CN2CCOC[C@H]2C)CN1 | MDA-MB-231 cells | 6.68
C[C@@H]1CN(CC(=O)N2CC(C)(C)c3c2cc(Cc2ccc(F)cc2)c2nc(C(F)(F)F)cn32)[C@@H](CN2CCN(S(C)(=O)=O)C[C@H]2C)CN1 | MDA-MB-231 cells | 6.31

P. C[C@@H]1CN(CC(=O)N2CC(C)(C)c3c2cc(C(F)c2ccc(F)cc2)c2ncnn32)[C@@H](CN2CCOC[C@H]2C)CN1 (stereo partly drawn)
Q. C[C@@H]1CN(CC(=O)N2CC(C)(C)c3c2cc(Cc2ccc(F)cc2)c2nc(C4CCOC4)nn32)[C@@H](CN2CCOC[C@H]2C)CN1 (stereo partly drawn)
R. C[C@@H]1CN(CC(=O)N2CC(C)(C)c3c2cc(Cc2ccc(F)cc2)c2nc(C4(O)CC4)nn32)[C@@H](CN2CCOC[C@H]2C)CN1
**Query** Order each entry by recorded pIC50, climbing from the minimum. Put the labels in the order asked and list them.
**Result** P, Q, R

P. C[C@@H]1CN(CC(=O)N2CC(C)(C)c3c2cc(Cc2ccc(F)cc2)c2nc(C(F)(F)F)cn32)[C@@H](CN2CCOCC2(C)C)CN1
Q. C[C@@H]1CN(CC(=O)N2CC(C)(C)c3c2cc(N2CCN(C)c4cc(F)ccc42)c2ncnn32)[C@@H](CN2CCOC[C@H]2C)CN1
R. C[C@@H]1CN(CC(=O)N2CC(C)(C)c3c2cc(Cc2ccc(F)cc2)c2nc(N4CCOC4=O)nn32)[C@@H](CN2CCOC[C@H]2C)CN1
**Query** Arrange these compounds by their pIC50, starting with the largest number. Put the labels in the order asked and list them.
**Result** R, P, Q
(R: 7.36, P: 6.57, Q: 6.17)

* * *

- System: MDA-MB-231 cells
- run_description: Cell proliferation assay (CellTiter-Glo), MDA-MB-231
- Format: cell-based
- condition_summary: Homo sapiens, MDA-MB-231, 72 h, 72 h treatment, Celltiter-Glo luminescence
readout_name: IC50 (nM)

For orientation, consider the following solved cases.
molecule | units_label | IC50
C[C@@H]1CN(CC(=O)N2CC(C)(C)c3c2cc(Cc2ccc(F)cc2)c2nc(NC=O)nn32)[C@@H](CN2CCOC[C@H]2C)CN1 [Compound 239] | nM | 14
C[C@@H]1CN(CC(=O)N2CC(C)(C)c3c2cc(Cc2ccc(F)cc2)c2nn(Cc4cnccn4)c(=O)n32)[C@@H](CN2CCOC[C@H]2C)CN1 [Compound 193] | nM | 50
CCOC(=O)c1cn2c3c(cc(Cc4ccc(F)cc4)c2n1)N(C(=O)CN1C[C@@H](C)NC[C@@H]1CN1CCOC[C@H]1C)CC3(C)C [Example 18] | nM | 74
C[C@@H]1CN(CC(=O)N2CC3(CCOCC3)c3c2cc(Cc2ccc(F)cc2)c2nc(C(F)(F)F)cn32)[C@@H](CN2CCOC[C@H]2C)CN1 [Compound 183] | nM | 810

A. CC(=O)N(C)c1nc2c(Cc3ccc(F)cc3)cc3c(n2n1)C(C)(C)CN3C(=O)CN1C[C@@H](C)NC[C@@H]1CN1CCOC[C@H]1C [Compound 238]
B. C[C@@H]1CN(CC(=O)N2CC(C)(C)c3c2cc(Cc2ccc(F)cc2)c2nc(C(F)(F)F)cn32)[C@@H](CN2[C@H](C)COC[C@@H]2C)CN1 [Compound 173]
**Query** Which entry shows the lesser value of IC50 here, A or B ? // caller expects the label of the chosen entry
**Result** A
(A: 31 nM, B: 530 nM)

* * *

- Test system: MDA-MB-231 cells
- run_description: Cell proliferation assay (CellTiter-Glo), MDA-MB-231
- Format: cell-based
- condition_summary: Homo sapiens, MDA-MB-231, 72 h, 72 h treatment, Celltiter-Glo luminescence
pIC50: −log10 of the molar value.
readout_name: pIC50

For orientation, consider the following solved cases.
molecule | pIC50
C[C@@H]1CN(CC(=O)N2CC(C)(C)c3c2cc(Cc2ccc(F)cc2)c2nc(S(C)(=O)=O)nn32)[C@@H](CN2CCOC[C@H]2C)CN1 | 7.15
C[C@@H]1CN(CC(=O)N2CC(C)(C)c3c2cc(Cc2ccc(F)cc2Cl)c2ncnn32)[C@@H](CN2CCOC[C@H]2C)CN1 | 6.92

1. [2H]C([2H])([2H])n1nc2c(Cc3ccc(F)cc3)cc3c(n2c1=O)C(C)(C)CN3C(=O)CN1C[C@@H](C)NC[C@@H]1CN1CCOC[C@H]1C
2. C[C@@H]1CN(CC(=O)N2CC(C)(C)c3c2cc(Cc2ccc(F)cc2)c2ncnn32)[C@@H](CN2CCN(C3COC3)C[C@H]2C)CN1
**Query** Return label of the item with the larger pIC50. Candidates: 1 , 2 . // caller expects the label of the chosen entry
**Result** 2
(2: 8.00, 1: 7.49)

a. C[C@@H]1CN(CC(=O)N2CC(C)(C)c3c2cc(Cc2ccc(F)cc2)c2nc(CC#N)nn32)[C@@H](CN2CCOC[C@H]2C)CN1
b. C[C@@H]1CN(CC(=O)N2CC(C)(C)c3c2cc(Cc2ccc(F)cc2)c2c(C(N)=O)cnn32)[C@@H](CN2CCOC[C@H]2C)CN1
**Query** Which entry shows the lesser value of pIC50 here, a or b ? // caller expects the label of the chosen entry
**Result** b
(b: 7.00, a: 7.37)

P. C[C@@H]1CN(CC(=O)N2CC(C)(C)c3c2cc(Cc2ccc(F)cc2)c2ncnn32)[C@@H](CN2CCN(CC(F)(F)F)C[C@H]2C)CN1
Q. C[C@@H]1CN(CC(=O)N2CC(C)(C)c3c2cc(Cc2ccc(F)cc2)c2cnnn32)[C@@H](CN2CCOC[C@H]2C)CN1
R. C[C@@H]1CN(CC(=O)N2CC(C)(C)c3c2cc(Cc2ccc(F)cc2)c2nn(Cc4ccncn4)c(=O)n32)[C@@H](CN2CCOC[C@H]2C)CN1
**Query** Arrange these compounds by their pIC50, starting with the largest number. Put the labels in the order asked and list them.
**Result** R, Q, P
